# Tested on: NCI-H226 lung
# assay_remarks: NCI tumour cell line growth inhibition, 48 h
measure_name: TGI (µM)
// note: answer is a bare numeric in µM

See these solved cases before continuing.
compound | measure_name | number
CC1=CC2CC(C)=C(CC[C@]3(C)CC[C@H]([C@@H](C)C(=O)O)OO3)C(C)(C)C2CC1 (stereo not given in full) | TGI | 3.45
O=S(=O)(Nc1ncccn1)c1ccc(N=Nc2ccc(O)c3ncccc23)cc1 | TGI | 30.5
CCc1nn(CN2CCN(C)CC2)c(=S)n1/N=C\c1ccc(-c2ccc([N+](=O)[O-])cc2)o1 | TGI | 86.4

// query Item under review: `C/C=C/[C@@]1(OC(=O)c2ccccc2)C[C@@H]2CCCC[C@@H]21` . Reported TGI?
// result 30.9

// query Item under review: `CC(C)(C)OC(=O)NCCNC1=CC(=O)c2nc3ccccc3c3ccnc1c23` . Reported TGI?
// result 52.8

// query Item under review: `Nc1nc2c(=O)c3ccccc3sc2s1` . Reported TGI?
// result 79.1

* * *

# Tested on: RPMI-8226 leukemia
# assay_remarks: NCI tumour cell line growth inhibition, 48 h
measure_name: TGI

molecule | TGI
Cc1ccc(C)c(NC(=O)C(=O)CC(=O)C2CCOC2=O)c1 (stereo unspecified) | > 100 µM

// query Item under review: `Cc1cc(C)nc(NC(N)=NCCc2ccccc2)n1` . Reported TGI?
// result > 100 µM

// query Item under review: COc1cccc(C2CC(c3cc(OC)c(OC)c(OC)c3)=NN2)c1 (stereo unspecified) . Reported TGI?
// result 26 µM

// query Item under review: `O=C(Cc1ccccc1)NCCc1ccc(O)c(O)c1` . Reported TGI?
// result > 100 µM

// query Item under review: `CCOC(=O)c1cccc(NC(=O)CCl)c1` . Reported TGI?
// result 15.9 µM

// query Item under review: COC(=O)N1CC2(CO)C3CC=C(C(=O)Nc4ccccc4Br)C2C1C3Br (stereo unspecified) . Reported TGI?
// result > 50 µM

* * *

# Test system: MALME-3M melanoma
# assay_remarks: NCI tumour cell line growth inhibition, 48 h; in the data active = GI50 below about 0.43 µM; inactive = the rest
The reply should be one of these categories: active, inactive

compound | group
CCCN(CCC)CCCNCc1cc(I)cc(C)c1O | inactive
CC(=O)N1CCN(C2=Nc3ccccc3CO2)C1=S | inactive
CC1=C([Se]CC(OC(=O)[C@@H](CSSC(C)(C)C)NC(=O)OC(C)(C)C)C(=O)NC(C)(C)C)C(=O)c2ccccc2C1=O (stereo partly specified) | inactive

// query I'd appreciate the recorded outcome for `C[n+]1c(/C=C\C=C\N2CCCCC2)sc2ccccc21` from this test.
// result active

// query I'd appreciate the recorded outcome for `CCC[CH2][Sn]([CH2]CCC)([O]C(=O)c1c(F)cccc1F)[O]C(=O)c1c(F)cccc1F` from this test.
// result inactive

// query I'd appreciate the recorded outcome for `COc1cc(-c2nn3c(/C=C4/C(=O)Nc5ccccc54)c(-c4ccc(C)cc4)nc3s2)cc(OC)c1OC` from this test.
// result inactive

// query I'd appreciate the recorded outcome for `C=C1C(=O)O[C@H]2[C@H]1CC/C(CNC(=O)/C=C/c1ccc(Br)cc1)=C\CC[C@@]1(C)O[C@@H]21` from this test.
// result inactive

// query I'd appreciate the recorded outcome for `COC(=O)[C@@H](NC(=O)NC(=O)NC(=O)CI)C(C)C` from this test.
// result inactive

// query I'd appreciate the recorded outcome for Cc1[nH]ncc1-c1cc2nc(C3CC4CCN3CC4)[nH]c(=O)c2s1 (stereo unspecified) from this test.
// result inactive

// query I'd appreciate the recorded outcome for COc1cccc2c1C(=O)c1c(O)c3c(c(O)c1C2=O)CC(O)(C(C)=O)CC3OC1CC(N)C(O)C(C)O1 (stereo unspecified) from this test.
// result inactive

// query I'd appreciate the recorded outcome for `C=C(Cn1c(=O)c2ccccc2c2ccccc21)c1ccc(C(=O)Nc2ccccc2N)cc1` from this test.
// result inactive

* * *

# Test system: MOLT-4 leukemia
# assay_remarks: NCI tumour cell line growth inhibition, 48 h; in the data active means GI50 below about 0.43 µM; inactive means the rest
The reply should be one of these categories: active, inactive

molecule | group
Cc1[nH]ncc1-c1cc2nc(C3CC4CCN3CC4)[nH]c(=O)c2s1 (centres undefined) | inactive
C=C(Cn1c(=O)c2ccccc2c2ccccc21)c1ccc(C(=O)Nc2ccccc2N)cc1 | active
O=C(Nc1ccc(Cl)cc1Cl)c1ccc(NC2=C(Cl)C(=O)N(Cc3ccccc3)C2=O)cc1 | inactive
COc1cccc(C2CC(c3cc(OC)c(OC)c(OC)c3)=NN2)c1 (centres undefined) | inactive
C=C1C(=O)O[C@H]2[C@H]1CC/C(CNC(=O)/C=C/c1ccc(Br)cc1)=C\CC[C@@]1(C)O[C@@H]21 | inactive

// query I'd appreciate the recorded outcome for `CC(=O)C1=C(O)C=C2Oc3c(C(=O)/C=C/c4cc(C(F)(F)F)cc(C(F)(F)F)c4)c(O)c(C)c(O)c3[C@]2(C)C1=O` from this test.
// result inactive

// query I'd appreciate the recorded outcome for `COc1cc(/C(Cl)=C/C=C/C(=O)c2c(C)[n+]([O-])c3ccc(Cl)cc3[n+]2[O-])cc(OC)c1OC` from this test.
// result inactive

// query I'd appreciate the recorded outcome for c1ccc(C2=NOC3(c4ccccc4)CC(c4cccs4)Sc4ccccc4N23)cc1 (centres undefined) from this test.
// result inactive

// query I'd appreciate the recorded outcome for `Cc1nc2sccn2c1/C=C1/C(=O)Nc2ccccc21` from this test.
// result inactive

* * *

# Tested on: IGROV1 ovarian
# assay_remarks: NCI tumour cell line growth inhibition, 48 h
The entries below are paired with their reported TGI.

molecule | result
CO/C(=N\N=C\c1cc(OC)ccc1OC)c1ccncc1 | > 10 µM

// query Item under review: `O=C(O)CSCc1cccc2ccccc12` . Reported TGI?
// result > 100 µM

// query Item under review: O=C1CSC2(CC(/C=C/c3ccccc3)=NN2c2cccc(S(=O)(=O)O)c2)N1c1nc2ccccc2s1 (configuration not stated) . Reported TGI?
// result 56.6 µM

// query Item under review: CC(=O)NC1C(OCc2ccccc2)OC(CO)C(O)C1OCC(=O)NC(C)C(=O)NC(CCC(=O)NCCCCNc1ccc([N+](=O)[O-])c2[nH]c3ccccc3c(=O)c12)C(N)=O (configuration not stated) . Reported TGI?
// result > 100 µM

// query Item under review: O=C(c1ccccc1)c1ccc2c(c1)nc1n2C(c2c(Cl)cccc2Cl)SC1 (configuration not stated) . Reported TGI?
// result > 100 µM

// query Item under review: `O=C(CP(c1ccccc1)c1ccccc1)c1cccc(C(=O)CP(c2ccccc2)c2ccccc2)c1` . Reported TGI?
// result > 100 µM

// query Item under review: `Cc1nc2sccn2c1/C=C1/C(=O)Nc2ccccc21` . Reported TGI?
// result > 25.2 µM

* * *

# System: HOP-92 NSCLC
# assay_remarks: NCI tumour cell line growth inhibition, 48 h; in the data active = GI50 below about 0.43 µM; inactive = the rest
The reply should be one of these categories: label 1 (active), label 0 (inactive)

These recorded examples may help you get a feel for the data.
molecule | assay_target | group
Cn1cc(-c2nonc2-c2c[nH]c3ccccc23)c2ccccc21 | HOP-92 NSCLC | label 0
C(=Nc1ccccc1)C1CCCC[N-]1.C(=Nc1ccccc1)C1CCCC[N-]1.[Cu+2].[O-][Cl+3]([O-])([O-])O (centres undefined) | HOP-92 NSCLC | label 0
O=C(Nc1ccc(Cl)cc1Cl)c1ccc(NC2=C(Cl)C(=O)N(Cc3ccccc3)C2=O)cc1 | HOP-92 NSCLC | label 0
COc1cc(-c2nn3c(/C=C4/C(=O)Nc5ccccc54)c(-c4ccc(C)cc4)nc3s2)cc(OC)c1OC | HOP-92 NSCLC | label 1
CC/C(Cc1ccccc1)=C(\c1ccc(OCCN2CCCCCC2)cc1)c1ccc(OC(=O)NCc2ccccc2)cc1 | HOP-92 NSCLC | label 0

// query I'd appreciate the recorded outcome for `COc1ccc2c(c1)C(=O)c1c-2n(CCCN)c(=O)c2ccccc12` from this test.
// result label 1

// query I'd appreciate the recorded outcome for `Cc1c2cnccc2c(C)c2c1c1cc(C3OCCCO3)ccc1n2C` from this test.
// result label 1

// query I'd appreciate the recorded outcome for `CN(C)CCCOc1ccccc1NC1=C(Cl)C(=O)C(Nc2ccccc2OCCCN(C)C)=C(Cl)C1=O` from this test.
// result label 0

// query I'd appreciate the recorded outcome for `Cc1c2cc[nH]c(=O)c2c(C)c2c1[nH]c1cc(OCCN3CCN(C)CC3)ccc12` from this test.
// result label 0

* * *

# Test system: KM12 colon
# assay_remarks: NCI tumour cell line growth inhibition, 48 h
The entries below are paired with their reported TGI.

compound | TGI
O=C1C2CCCCC2C(=O)N1n1c(Cc2ccc(Cl)cc2)n[nH]c1=O (stereo unspecified) | > 100 µM
O=C1OC(=O)c2c1c(-c1ccccc1)cn2-c1ccc(Cl)cc1 | > 100 µM
Cc1ccc(NCCCN2CCN(CCCNc3ccc(C)c4sc5ccccc5c(=O)c34)CC2)c2c(=O)c3ccccc3sc12 | > 100 µM

// query Item under review: C=CCC1OC(C)(C)Oc2ccc(OCOCCOC)cc21 (stereo unspecified) . Reported TGI?
// result > 100 µM

// query Item under review: `O=C(Nc1cccc2ccccc12)Oc1ccccc1C1CCCCC1` . Reported TGI?
// result 41.7 µM

// query Item under review: `C=C(CNC(=O)Nc1ccc(-c2ccccc2)cc1)c1ccc(C(=O)Nc2ccccc2N)cc1` . Reported TGI?
// result > 100 µM
